assay: Acute toxicity, mouse; conditions: in vivo, po, os, read-out: DL50 and L.F.

Molecule	LD50 (mg/kg)
Cc1[nH]cnc1-c1ccc(Cl)cc1 [Chlorophenazole, 4-(p-chlorophenyl)-5-methylimidazole]	534

====

assay: in vivo; conditions: rat, ip

Molecule	LD50, mg/kg
Cc1[nH]cnc1-c1ccc(Cl)cc1 [Chlorophenazole, 4-(p-chlorophenyl)-5-methylimidazole]	135
